Entry source: the supplement of paper PMC6555819

# PBM binding z-score per record follows
Test system: PPARg:RXRa 90nM:30nM, anti-RXR (NR concentration 90 nM, RXRa partner concentration 30 nM)
Experimental Details: PBM binding z-score (relative to random genomic background probes); higher = stronger binding; sequences stand for … in GC…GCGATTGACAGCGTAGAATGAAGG
Quantity: PBM binding z-score

Chain Sequence: CCGAGTAGGTTAGGGGGCATTCAGGCAACGGTGA
Assayed Target: PPARg:RXRa 90nM:30nM, anti-RXR (NR concentration 90 nM, RXRa partner concentration 30 nM)
Measured: 7.46

Chain Sequence: AGAATGAGGTTATAGGTAGATCAGGGAAGAAAGT
Assayed Target: PPARg:RXRa 90nM:30nM, anti-RXR (NR concentration 90 nM, RXRa partner concentration 30 nM)
Measured: 4.47

Chain Sequence: AGAATGAGGCTAAGATCAGGGAAACAGAATACAT
Assayed Target: PPARg:RXRa 90nM:30nM, anti-RXR (NR concentration 90 nM, RXRa partner concentration 30 nM)
Measured: 0.138

Chain Sequence: TAGCCTAGGTGATGCGGGCCAGTATAGTGTCGGC
Assayed Target: PPARg:RXRa 90nM:30nM, anti-RXR (NR concentration 90 nM, RXRa partner concentration 30 nM)
Measured: -0.934

Chain Sequence: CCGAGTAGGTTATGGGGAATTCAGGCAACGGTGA
Assayed Target: PPARg:RXRa 90nM:30nM, anti-RXR (NR concentration 90 nM, RXRa partner concentration 30 nM)
Measured: 1.48

Chain Sequence: TAGCCTAGGTCAGATTGGGCCAGTATACGCTATA
Assayed Target: PPARg:RXRa 90nM:30nM, anti-RXR (NR concentration 90 nM, RXRa partner concentration 30 nM)
Measured: -0.114

Chain Sequence: TCTCGGAGGACGCGAAAGGTCAGAGCTCGACATC
Assayed Target: PPARg:RXRa 90nM:30nM, anti-RXR (NR concentration 90 nM, RXRa partner concentration 30 nM)
Measured: 3.21

Chain Sequence: ATACCAAGGTGATCGGGAGGTCGTTGATACTAAC
Assayed Target: PPARg:RXRa 90nM:30nM, anti-RXR (NR concentration 90 nM, RXRa partner concentration 30 nM)
Measured: 0.12

Chain Sequence: CTTGAAAGGTCGGTTGAGGTGAGTATACGGATAA
Assayed Target: PPARg:RXRa 90nM:30nM, anti-RXR (NR concentration 90 nM, RXRa partner concentration 30 nM)
Measured: 0.942

Chain Sequence: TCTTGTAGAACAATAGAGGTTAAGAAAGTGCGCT
Assayed Target: PPARg:RXRa 90nM:30nM, anti-RXR (NR concentration 90 nM, RXRa partner concentration 30 nM)
Measured: 2.2

Chain Sequence: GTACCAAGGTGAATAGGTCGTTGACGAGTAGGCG
Assayed Target: PPARg:RXRa 90nM:30nM, anti-RXR (NR concentration 90 nM, RXRa partner concentration 30 nM)
Measured: 1.35

Chain Sequence: ATCTCTAGGTAAAAGTTAAGTGAATCCCGAGGAT
Assayed Target: PPARg:RXRa 90nM:30nM, anti-RXR (NR concentration 90 nM, RXRa partner concentration 30 nM)
Measured: 4.71

---

System: VDR:RXRa (NR concentration 270 nM, RXRa partner concentration 90 nM)
Experimental Details: PBM binding z-score (relative to random genomic background probes); higher = stronger binding; sequences stand for … in GC…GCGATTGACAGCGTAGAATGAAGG
Quantity: PBM binding z-score

Chain Sequence: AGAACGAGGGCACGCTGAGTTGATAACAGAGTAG
Measured: 2.06
--
Chain Sequence: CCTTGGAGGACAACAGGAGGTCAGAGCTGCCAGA
Measured: 1.99
--
Chain Sequence: AGAACGAGGGCACACTGAGTTGATAGCAGAGTAG
Measured: 2.15
--
Chain Sequence: CCAGACAGGTGAGAAGGCAACTCAGCCTCGATTA
Measured: -0.345
--
Chain Sequence: CCTCGGAGGACAACAGGAGGTCGGAGCTGCCAGA
Measured: -0.0445
--
Chain Sequence: TCTATTAGTTGATTAGGGCCACCGAAACAGCGGA
Measured: 0.782
--
Chain Sequence: GCGACTGGGGCAAACCAGGTTACCATAAGGTTGG
Measured: 0.416
--
Chain Sequence: TCTCGGGGGACACGAAGGTCAGAGCTTTCCAGAG
Measured: 3.72
--
Chain Sequence: CCTACTGGGCCACGAAAGGTCATTGTTTCAGTGA
Measured: 4.25
--
Chain Sequence: GTACCAAGGTGAATAGGTCGCTGATGAGTAGGCG
Measured: 0.351
--
Chain Sequence: ATTATTAGTTGACTTAGGGCAACCGATACGACGC
Measured: 0.926
--
Chain Sequence: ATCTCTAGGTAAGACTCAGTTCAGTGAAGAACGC
Measured: 0.833

---

System: LXRb homodimer (NR concentration 270 nM)
Experimental Details: PBM binding z-score (relative to random genomic background probes); higher = stronger binding; sequences stand for … in GC…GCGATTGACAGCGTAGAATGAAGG
Please note: Met applies when PBM binding z-score is -0.4 or greater, and Not met applies otherwise.

Chain Sequence: CCTGCTAGGTCAATGCTCAGCTAAAGCAGCTCGC
Class Label: Met
//
Chain Sequence: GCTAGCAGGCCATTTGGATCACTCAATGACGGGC
Class Label: Not met
//
Chain Sequence: TGTCAAAGTCCAAAGGTAACGTAAGTATCCACAC
Class Label: Met
//
Chain Sequence: GCTATTAGTTGAATGGGCAACCGAATGATTCTCG
Class Label: Met
//
Chain Sequence: TAGCCTAGGTCAGATCGGCCCAGTATACGCTATA
Class Label: Met
//
Chain Sequence: CGTCCAAGGTCAAAGGTCCGTGAAGAGATGACGG
Class Label: Met
//
Chain Sequence: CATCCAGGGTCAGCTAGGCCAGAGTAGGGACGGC
Class Label: Met
//
Chain Sequence: CTCGAAAAGTCGGTTGAGGTGAGTATACGGATAA
Class Label: Met
//
Chain Sequence: GGAACGAGGGCAAGCTGATAGCAGAGTTTGATGG
Class Label: Not met
//
Chain Sequence: ACCAGTTGGTCAGCTGAGGTCACACACAATTCGG
Class Label: Met
//
Chain Sequence: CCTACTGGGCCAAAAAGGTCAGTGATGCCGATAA
Class Label: Not met

---

System: THRa homodimer (NR concentration 90 nM)
Experimental Details: PBM binding z-score (relative to random genomic background probes); higher = stronger binding; sequences stand for … in GC…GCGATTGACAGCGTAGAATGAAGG
# PBM binding z-score per record follows

Chain Sequence: CCGACTGGGGCAAAGGTGACCATACTCAGTACGA
PBM binding z-score: -0.0809
//
Chain Sequence: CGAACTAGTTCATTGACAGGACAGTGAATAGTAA
PBM binding z-score: -0.237
//
Chain Sequence: TCTATTAGTTGAAGGGCAAGCGACGAGTCCGTTT
PBM binding z-score: 0.0509
//
Chain Sequence: CCAACTGGGGCAAAGGTTACCATACTCAGTACGA
PBM binding z-score: 0.0572
//
Chain Sequence: TCATATAGGTAAACAGGAGAAAGTCCGTAAGTTA
PBM binding z-score: -0.0606
//
Chain Sequence: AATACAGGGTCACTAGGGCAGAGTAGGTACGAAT
PBM binding z-score: 1.6
//
Chain Sequence: TAGCCTAGGTCATTGGGCCAGTAAAGTACGCATC
PBM binding z-score: 0.775
//
Chain Sequence: ATCTCTAGATAAAGTTCAGTGAAAGATCGATAGA
PBM binding z-score: -0.14
//
Chain Sequence: CCTAGTTGGTCAGGAGTTCACACACCGGATATGA
PBM binding z-score: 1.07
//
Chain Sequence: CCTCGGAGGACAACAGGAGTTCAGAGCTGCCAGA
PBM binding z-score: -0.102
//
Chain Sequence: CATACAGGGTCAGCTCGGCCAGAGTAGGGACGGC
PBM binding z-score: 0.883
//
Chain Sequence: TCCTATAGGTAAAAGGTGAAAGTCGGTGTGGTAA
PBM binding z-score: 0.0134
//
Chain Sequence: CCTGCTAGGTCATGGTCAGCTGATCTACAGTATG
PBM binding z-score: 1.23
//
Chain Sequence: GCATATAGCTAATACAAGGTGAAAGTCCGATTGT
PBM binding z-score: 0.866
//
Chain Sequence: ACAGACAGGTGATGAAGGAAACTCAGGCTATCAT
PBM binding z-score: 0.0695
//
Chain Sequence: ACTATTAGTTGATTTAGGGCAACCGATACGACGC
PBM binding z-score: 0.806
//
Chain Sequence: CGTCCAAGGTCAGCAGGTCAGTTAAAGCGACGTG
PBM binding z-score: 2.96
//
Chain Sequence: TCTCAGAGGACACGAAGGTCAGAGCTTTCCAGAG
PBM binding z-score: 0.738
//
Chain Sequence: ACCTCTAGGTAACAAGTTCAGTGAAAGAGAGGAC
PBM binding z-score: 0.425
//
Chain Sequence: TGAATGAGGTTATCAGATCAGGGAACGTTGCAAA
PBM binding z-score: 0.233
//
Chain Sequence: ACTAGCAGGCCAAGTTTGGGTCACTCAAACAAAG
PBM binding z-score: 0.952
//
Chain Sequence: GCTGCTAGGTCAGGTTCGTCAGCTAACGGGTACG
PBM binding z-score: 0.323
//
Chain Sequence: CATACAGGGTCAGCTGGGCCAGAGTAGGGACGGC
PBM binding z-score: 0.678
//
Chain Sequence: GCAGACAGGTGAAACGCAGGTAACTCTGGGTGGC
PBM binding z-score: -0.802
//
Chain Sequence: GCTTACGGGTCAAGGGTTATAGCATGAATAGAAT
PBM binding z-score: 0.219
//
Chain Sequence: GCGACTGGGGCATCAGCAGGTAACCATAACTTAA
PBM binding z-score: 0.168
